biological target: Gonadotropin-releasing hormone receptor (Rattus norvegicus) (UniProt P30969); test: In vitro antagonist activity at GNRHR in CD rat anterior pituitary gland assessed as inhibition of LH-RH-stimulated LH release at compound to LH-RH molar ratio of 1000 after 4 hrs by radioimmunoassay; details: concentration not given here
Sequence (P30969 whole entry): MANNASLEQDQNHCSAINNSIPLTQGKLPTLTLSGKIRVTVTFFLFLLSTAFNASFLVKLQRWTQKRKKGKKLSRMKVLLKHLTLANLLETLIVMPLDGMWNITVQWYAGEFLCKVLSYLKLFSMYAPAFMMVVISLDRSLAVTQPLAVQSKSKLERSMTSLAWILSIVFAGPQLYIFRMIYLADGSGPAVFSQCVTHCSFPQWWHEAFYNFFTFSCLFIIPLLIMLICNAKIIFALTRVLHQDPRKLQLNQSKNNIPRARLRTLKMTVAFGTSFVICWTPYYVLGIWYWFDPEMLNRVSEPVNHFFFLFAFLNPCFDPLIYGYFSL
Peptide text beside a SMILES is read from it.
Assay metric: inhibition (%)
Give the value in % but do not write % after it.

CC(C)C[C@H](NC(=O)CNC(=O)[C@H](Cc1ccc(O)cc1)NC(=O)[C@H](CO)NC(=O)[C@H](Cc1c[nH]c2ccccc12)NC(=O)[C@@H](NC(=O)OCc1ccccc1)C(C)C)C(=O)N[C@@H](CCCNC(=N)N)C(=O)N1CCC[C@H]1C(=O)NCC(N)=O (HELM PEPTIDE1{[O=C(OCc1ccccc1)[*:2]].V.W.S.Y.G.L.R.P.G.[am]}$$$$V2.0) ... 48

Kindly consider the entry below.
q: Need inhibition, item CCNC(=O)CNC(=O)[C@@H]1CCCN1C(=O)[C@H](CCCNC(=N)N)NC(=O)[C@H](CC(C)C)NC(=O)CNC(=O)[C@H](Cc1ccc(O)cc1)NC(=O)[C@H](CO)NC(=O)[C@H](Cc1c[nH]c2ccccc12)NC(=O)[C@H](CCC(N)=O)NC(=O)OCc1ccccc1 (HELM PEPTIDE1{[O=C(OCc1ccccc1)[*:2]].Q.W.S.Y.G.L.R.P.G.[CCN[*:1]]}$$$$V2.0)
a: 40
